Kindly supply the reported TGI values for the records listed here.
- Tested on: UACC-62 melanoma
- ASSAY PROCEDURE: NCI tumour cell line growth inhibition, 48 h

MOLECULE	TGI
CNC(=O)C(CCc1ccccc1)NC(=O)C(CC(=O)NO)CC(C)C (stereo not given)	> 25 µM
COc1ncc(-c2ccc3nccc(C#CCCCCC(=O)O)c3c2)cc1NS(=O)(=O)c1ccc(F)cc1F	3.02 µM
CCOC(=O)C(C(CC(=O)OC)NC(=O)OCc1ccccc1)C1(C)OCCO1 (stereo not given)	> 100 µM
Cc1ccc(NC(=O)/C(CC2N=c3c(ccc4c(O)c5ccccc5c(O)c34)=NC2O)=N/NC(C)(C)C)cc1 (stereo not given)	45.8 µM
COc1ccc(C23OCC(Cc4cc(OC)c(OC)cc42)C3COC(C)=O)cc1OC (stereo not given)	> 100 µM

Give TGI for each of the items listed below.
1. C=C1CC2(OC1=O)C(=O)N(C)c1ccc(I)cc12 (stereo not given)
2. COc1cc(C(=O)c2c(-c3ccccc3)oc3c(OC)cccc23)cc(OC)c1O
3. Cc1cccc(C(C)(C)C)c1NC(=O)CCl
4. CC(CCOc1c2ccoc2cc2oc(=O)ccc12)C1=CC(=O)C(C)(C)O1 (stereo not given)
5. NCCc1c[nH]c2ccc(OC(=O)C(=O)O)cc12
6. COc1ccc(S(=O)Cc2cc(OC)c(OC)c(OC)c2)cc1 (stereo not given)
7. COC1CCN(N(C)C)O1 (stereo not given)
8. CC1=NCC[N+]1(CCc1ccccc1)Cc1ccccc1 (stereo not given)

OUTPUT:
1: 2.69 µM; 2: > 100 µM; 3: > 100 µM; 4: > 100 µM; 5: > 100 µM; 6: > 100 µM; 7: > 100 µM; 8: > 100 µM

Give TGI for each of the items listed below.
1. CC1(C)CCC2(CC1)N[C@@H](C(=O)N[C@@H]1CC[C@@H](C(N)=O)OC1)[C@H](c1ccnc(Cl)c1F)[C@]21C(=O)Nc2cc(Cl)ccc21
2. CC(C)=CCCC(C)[C@H]1CC(O)C2(C)C3=CCC4C(C)(C)[C@@H](O)CC[C@]4(C)C3=CC[C@]12C (stereo not given in full)
3. COc1ccc(-c2cn3c(nc4ccccc43)c(/C=C/c3cccs3)n2)cc1
4. COc1ccc(-c2nnc(COc3ccc(Cl)cc3Cl)o2)cc1OC
5. CC1(F)C=CC(=O)C=C1
6. Sc1ccccc1S
7. C=CCN(Cc1ccncc1)C(=O)C(O)(c1ccccc1)c1ccccc1
8. C=CCSc1nc2c(N)ncnc2n1C1OC(CO)C(O)C1O (stereo not given)

OUTPUT:
2.05 µM
15.1 µM
> 100 µM
> 100 µM
> 100 µM
> 100 µM
> 100 µM
> 100 µM

Give TGI for each of the items listed below.
1. CCN1C(=O)N(C)C(O)c2c1nc1ccccn1c2=O (stereo not given)
2. O=C1c2ccccc2C(=Nc2ccc3ccccc3c2)C1(C1=C(c2ccccc2)C(=Nc2ccc3ccccc3c2)c2ccccc21)c1ccccc1 (stereo not given)
3. CCCOP1(=O)C=C(O)C(Cl)=C(C)C1 (stereo not given)

OUTPUT:
1.98 µM
> 53.5 µM
> 100 µM

INPUT: Requested field: TGI. Item: C[n+]1cn(C2=C([O-])c3ccccc3C(=O)/C2=N\S(=O)(=O)c2ccccc2)c2ccccc21
OUTPUT: 45.6 µM
